# TESTED TARGET: UniProt:P33033
# PROTOCOL: Antagonist activity at mouse melanocortin receptor 3 expressed in HEK293 cells assessed as inhibition of NDP-MSH-induced cAMP accumulation incubated for 2 hrs by cAMP Alpha-screen assay based Schild analysis
# Type: functional, cell-based
# TEST SETTINGS: read-out: pA2 (converted)
Square brackets hold non-standard residues; d marks the D form. Peptide text beside a SMILES is read from it. dPhe(4-I) = N[C@H](Cc1ccc(I)cc1)C(=O)O; 2Nal = N[C@@H](Cc1ccc2ccccc2c1)C(=O)O; d2Nal = N[C@H](Cc1ccc2ccccc2c1)C(=O)O
Give measured Kb for each item. Keep answers brief.

## Input Input CC(=O)N[C@H](Cc1ccc2ccccc2c1)C(=O)N[C@@H](CCCNC(=N)N)C(=O)N[C@@H](Cc1ccc2ccccc2c1)C(=O)N[C@H](Cc1ccc2ccccc2c1)C(N)=O (Ac-[d2Nal]R[2Nal][d2Nal]-NH2) , output reported Kb.
## Output > 3160 nM

## Input Give me measured Kb, please, for this compound: CC(=O)N[C@H](Cc1ccc2ccccc2c1)C(=O)N[C@@H](CCCNC(=N)N)C(=O)N[C@H](Cc1ccc(I)cc1)C(=O)N[C@@H](CCCNC(=N)N)C(N)=O (Ac-[d2Nal]R[dPhe(4-I)]R-NH2)
## Output 79.4 nM

## Input Recall and state the measured Kb for CC(=O)N[C@H](Cc1ccc2ccccc2c1)C(=O)N[C@@H](CCCNC(=N)N)C(=O)N[C@H](Cc1ccc2ccccc2c1)C(=O)N[C@@H](CCCNC(=N)N)C(N)=O (Ac-[d2Nal]R[d2Nal]R-NH2) .
## Output 794 nM

## Input Return Kb (reported value) for this compound: CC(=O)N[C@H](Cc1ccc2ccccc2c1)C(=O)N[C@@H](CCCNC(=N)N)C(=O)N[C@@H](Cc1ccc2ccccc2c1)C(=O)N[C@@H](CCCNC(=N)N)C(N)=O (Ac-[d2Nal]R[2Nal]R-NH2)
## Output 100 nM

## Input Entry CC(=O)N[C@H](Cc1ccc(I)cc1)C(=O)N[C@@H](CCCNC(=N)N)C(=O)N[C@H](Cc1ccc(I)cc1)C(=O)N[C@H](Cc1ccc2ccccc2c1)C(N)=O (Ac-[dPhe(4-I)]R[dPhe(4-I)][d2Nal]-NH2) needs its Kb filled in; supply it.
## Output 501 nM

## Input Specify measured Kb for CC(=O)N[C@H](Cc1ccc(I)cc1)C(=O)N[C@@H](CCCNC(=N)N)C(=O)N[C@@H](Cc1c[nH]c2ccccc12)C(=O)N[C@H](CCCCN)C(N)=O (Ac-[dPhe(4-I)]RW[dK]-NH2) .
## Output 631 nM

## Input Kindly indicate its recorded Kb. Item: CC(=O)N[C@H](Cc1ccc2ccccc2c1)C(=O)N[C@H](Cc1ccc2ccccc2c1)C(=O)N[C@@H](Cc1ccc2ccccc2c1)C(=O)N[C@H](CCCCN)C(N)=O (Ac-[d2Nal][d2Nal][2Nal][dK]-NH2)
## Output > 3160 nM

## Input # return recorded Kb for entry CC(=O)N[C@H](Cc1ccc(I)cc1)C(=O)N[C@H](Cc1ccc2ccccc2c1)C(=O)N[C@H](Cc1ccc2ccccc2c1)C(=O)N[C@@H](CCCNC(=N)N)C(N)=O (Ac-[dPhe(4-I)][d2Nal][d2Nal]R-NH2)
## Output > 3160 nM

## Input Note down Kb recorded for CC(=O)N[C@H](Cc1ccc2ccccc2c1)C(=O)N[C@H](Cc1ccc2ccccc2c1)C(=O)N[C@H](Cc1ccc(I)cc1)C(=O)N[C@H](CCCCN)C(N)=O (Ac-[d2Nal][d2Nal][dPhe(4-I)][dK]-NH2)
## Output > 3160 nM

---

# TESTED TARGET: Melanocortin receptor 3 (Mus musculus) (UniProt P33033)
# Sequence (P33033 whole entry): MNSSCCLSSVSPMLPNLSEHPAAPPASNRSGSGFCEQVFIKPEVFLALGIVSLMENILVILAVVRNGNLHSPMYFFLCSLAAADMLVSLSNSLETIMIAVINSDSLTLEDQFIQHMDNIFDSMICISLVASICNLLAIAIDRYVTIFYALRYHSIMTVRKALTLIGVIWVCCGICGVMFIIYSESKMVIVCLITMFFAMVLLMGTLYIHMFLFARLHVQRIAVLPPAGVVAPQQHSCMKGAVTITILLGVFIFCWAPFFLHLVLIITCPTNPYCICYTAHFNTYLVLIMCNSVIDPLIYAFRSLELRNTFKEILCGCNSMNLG
# PROTOCOL: Agonist activity at mouse MC3R expressed in HEK293 cells assessed as induction of cAMP level at 100 uM incubated for 2 hr by alphaScreen assay relative to control
# Format: functional, cell-based
Square brackets hold non-standard residues; d marks the D form. Peptide text beside a SMILES is read from it. dPhe(4-I) = N[C@H](Cc1ccc(I)cc1)C(=O)O; 2Nal = N[C@@H](Cc1ccc2ccccc2c1)C(=O)O; d2Nal = N[C@H](Cc1ccc2ccccc2c1)C(=O)O
OUTCOME MEASURE: Activity (%)
Field format: number, assumed %, no unit text.

## Input Kindly indicate its recorded Activity. Item: CC(=O)N[C@H](Cc1ccc(I)cc1)C(=O)N[C@H](Cc1ccc2ccccc2c1)C(=O)N[C@@H](Cc1ccc2ccccc2c1)C(=O)N[C@H](CCCCN)C(N)=O (Ac-[dPhe(4-I)][d2Nal][2Nal][dK]-NH2)
## Output 20

## Input Return Activity for the following compound: CC(=O)N[C@H](Cc1ccc2ccccc2c1)C(=O)N[C@@H](CCCNC(=N)N)C(=O)N[C@@H](Cc1ccc2ccccc2c1)C(=O)N[C@H](Cc1ccc2ccccc2c1)C(N)=O (Ac-[d2Nal]R[2Nal][d2Nal]-NH2)
## Output 30

## Input Identify Activity associated with the compound CC(=O)N[C@H](Cc1ccc(I)cc1)C(=O)N[C@@H](CCCNC(=N)N)C(=O)N[C@@H](Cc1c[nH]c2ccccc12)C(=O)N[C@H](Cc1ccc2ccccc2c1)C(N)=O (Ac-[dPhe(4-I)]RW[d2Nal]-NH2)
## Output 25

## Input Dear colleague, please send me the reported Activity for CC(=O)N[C@H](Cc1ccc(I)cc1)C(=O)N[C@@H](CCCNC(=N)N)C(=O)N[C@@H](Cc1c[nH]c2ccccc12)C(=O)N[C@@H](CCCNC(=N)N)C(N)=O (Ac-[dPhe(4-I)]RWR-NH2) when you can.
## Output 25

## Input Annotate the compound CC(=O)N[C@H](Cc1ccc2ccccc2c1)C(=O)N[C@H](Cc1ccc2ccccc2c1)C(=O)N[C@@H](Cc1c[nH]c2ccccc12)C(=O)N[C@@H](CCCNC(=N)N)C(N)=O (Ac-[d2Nal][d2Nal]WR-NH2) with its measured Activity.
## Output 35

## Input Tell me Activity reported for CC(=O)N[C@H](Cc1ccc2ccccc2c1)C(=O)N[C@H](Cc1ccc2ccccc2c1)C(=O)N[C@H](Cc1ccc2ccccc2c1)C(=O)N[C@@H](CCCNC(=N)N)C(N)=O
## Output 35

---

Assignment: determine reported Kb for the given compounds.
# TESTED TARGET: UniProt:P56450
# Sequence (P56450 whole entry): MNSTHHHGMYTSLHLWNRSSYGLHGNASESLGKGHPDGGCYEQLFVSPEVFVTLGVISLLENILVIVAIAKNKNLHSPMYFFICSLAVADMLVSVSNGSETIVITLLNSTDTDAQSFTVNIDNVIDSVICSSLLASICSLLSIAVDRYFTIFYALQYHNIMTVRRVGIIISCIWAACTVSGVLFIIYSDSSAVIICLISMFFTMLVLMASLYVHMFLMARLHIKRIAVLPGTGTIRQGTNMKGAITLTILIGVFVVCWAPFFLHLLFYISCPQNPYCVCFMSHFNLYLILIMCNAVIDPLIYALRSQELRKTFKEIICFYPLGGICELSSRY
# PROTOCOL: Antagonist activity at mouse melanocortin receptor 4 expressed in HEK293 cells assessed as inhibition of NDP-MSH-induced cAMP accumulation incubated for 2 hrs by cAMP Alpha-screen assay based Schild analysis
# Assay type: functional, cell-based
# TEST SETTINGS: read-out: pA2 (converted)
Square brackets hold non-standard residues; d marks the D form. Peptide text beside a SMILES is read from it. dPhe(4-I) = N[C@H](Cc1ccc(I)cc1)C(=O)O; d2Nal = N[C@H](Cc1ccc2ccccc2c1)C(=O)O
Kindly provide the numeric value in nM only, without the unit symbol.

## Input Give Kb for the following compound: CC(=O)N[C@H](Cc1ccc2ccccc2c1)C(=O)N[C@@H](CCCNC(=N)N)C(=O)N[C@@H](Cc1c[nH]c2ccccc12)C(=O)N[C@@H](CCCNC(=N)N)C(N)=O (Ac-[d2Nal]RWR-NH2)
## Output 5.01

## Input # return recorded Kb for input CC(=O)N[C@H](Cc1ccc(I)cc1)C(=O)N[C@@H](CCCNC(=N)N)C(=O)N[C@@H](Cc1c[nH]c2ccccc12)C(=O)N[C@H](Cc1ccc2ccccc2c1)C(N)=O (Ac-[dPhe(4-I)]RW[d2Nal]-NH2)
## Output 25.1

## Input Kindly indicate its recorded Kb. Item: CC(=O)N[C@H](Cc1ccc(I)cc1)C(=O)N[C@@H](CCCNC(=N)N)C(=O)N[C@H](Cc1ccc(I)cc1)C(=O)N[C@H](CCCCN)C(N)=O (Ac-[dPhe(4-I)]R[dPhe(4-I)][dK]-NH2)
## Output 3.16

---

# TESTED TARGET: Melanocortin receptor 3 (Mus musculus)
# PROTOCOL: Antagonist activity at mouse melanocortin receptor 3 expressed in HEK293 cells assessed as inhibition of NDP-MSH-induced cAMP accumulation incubated for 2 hrs by cAMP Alpha-screen assay based Schild analysis
Square brackets hold non-standard residues; d marks the D form. Peptide text beside a SMILES is read from it. dPhe(4-I) = N[C@H](Cc1ccc(I)cc1)C(=O)O; d2Nal = N[C@H](Cc1ccc2ccccc2c1)C(=O)O
OUTCOME MEASURE: Ki (nM)
Please respond with the number in nM and leave the unit unwritten.

## Input # assay system Melanocortin receptor 3 (Mus musculus): give Ki of CC(=O)N[C@H](Cc1ccc(I)cc1)C(=O)N[C@@H](CCCNC(=N)N)C(=O)N[C@H](Cc1ccc2ccccc2c1)C(=O)N[C@H](Cc1ccc2ccccc2c1)C(N)=O (Ac-[dPhe(4-I)]R[d2Nal][d2Nal]-NH2)
## Output 790

## Input Write down the reported Ki (system: Melanocortin receptor 3 (Mus musculus)) of CC(=O)N[C@H](Cc1ccc(I)cc1)C(=O)N[C@@H](CCCNC(=N)N)C(=O)N[C@H](Cc1ccc(I)cc1)C(=O)N[C@H](Cc1ccc2ccccc2c1)C(N)=O (Ac-[dPhe(4-I)]R[dPhe(4-I)][d2Nal]-NH2)
## Output 500

## Input Give measured Ki for CC(=O)N[C@H](Cc1ccc(I)cc1)C(=O)N[C@@H](CCCNC(=N)N)C(=O)N[C@H](Cc1ccc(I)cc1)C(=O)N[C@H](CCCCN)C(N)=O (Ac-[dPhe(4-I)]R[dPhe(4-I)][dK]-NH2) (Melanocortin receptor 3 (Mus musculus)).
## Output 32

## Input Please respond with reported Ki (system Melanocortin receptor 3 (Mus musculus)) for CC(=O)N[C@H](Cc1ccc(I)cc1)C(=O)N[C@@H](CCCNC(=N)N)C(=O)N[C@@H](Cc1c[nH]c2ccccc12)C(=O)N[C@@H](CCCNC(=N)N)C(N)=O (Ac-[dPhe(4-I)]RWR-NH2) .
## Output 40

## Input Name the value of Ki reported for CC(=O)N[C@H](Cc1ccc(I)cc1)C(=O)N[C@@H](CCCNC(=N)N)C(=O)N[C@@H](Cc1c[nH]c2ccccc12)C(=O)N[C@H](Cc1ccc2ccccc2c1)C(N)=O (Ac-[dPhe(4-I)]RW[d2Nal]-NH2) when tested on Melanocortin receptor 3 (Mus musculus).
## Output 1000

## Input Quote Ki with test system Melanocortin receptor 3 (Mus musculus) for CC(=O)N[C@H](Cc1ccc(I)cc1)C(=O)N[C@@H](CCCNC(=N)N)C(=O)N[C@@H](Cc1c[nH]c2ccccc12)C(=O)N[C@H](CCCCN)C(N)=O (Ac-[dPhe(4-I)]RW[dK]-NH2)
## Output 630

## Input Report measured Ki on Melanocortin receptor 3 (Mus musculus); entry: CC(=O)N[C@H](Cc1ccc(I)cc1)C(=O)N[C@@H](CCCNC(=N)N)C(=O)N[C@H](Cc1ccc(I)cc1)C(=O)N[C@@H](CCCNC(=N)N)C(N)=O (Ac-[dPhe(4-I)]R[dPhe(4-I)]R-NH2)
## Output 40

## Input Jot down Ki (Melanocortin receptor 3 (Mus musculus)) of CC(=O)N[C@H](Cc1ccc(I)cc1)C(=O)N[C@H](Cc1ccc2ccccc2c1)C(=O)N[C@@H](Cc1c[nH]c2ccccc12)C(=O)N[C@H](CCCCN)C(N)=O (Ac-[dPhe(4-I)][d2Nal]W[dK]-NH2) .
## Output 2000
